target: DNA gyrase subunit A/DNA gyrase subunit B (Mycobacterium tuberculosis (strain ATCC 25618 / H37Rv), UniProt P9WG45+P9WG47); assay: Inhibition of Mycobacterium tuberculosis DNA gyrase assessed as inhibition of DNA supercoiling after 30 mins by electrophoresis
Sequence (P9WG45 whole entry): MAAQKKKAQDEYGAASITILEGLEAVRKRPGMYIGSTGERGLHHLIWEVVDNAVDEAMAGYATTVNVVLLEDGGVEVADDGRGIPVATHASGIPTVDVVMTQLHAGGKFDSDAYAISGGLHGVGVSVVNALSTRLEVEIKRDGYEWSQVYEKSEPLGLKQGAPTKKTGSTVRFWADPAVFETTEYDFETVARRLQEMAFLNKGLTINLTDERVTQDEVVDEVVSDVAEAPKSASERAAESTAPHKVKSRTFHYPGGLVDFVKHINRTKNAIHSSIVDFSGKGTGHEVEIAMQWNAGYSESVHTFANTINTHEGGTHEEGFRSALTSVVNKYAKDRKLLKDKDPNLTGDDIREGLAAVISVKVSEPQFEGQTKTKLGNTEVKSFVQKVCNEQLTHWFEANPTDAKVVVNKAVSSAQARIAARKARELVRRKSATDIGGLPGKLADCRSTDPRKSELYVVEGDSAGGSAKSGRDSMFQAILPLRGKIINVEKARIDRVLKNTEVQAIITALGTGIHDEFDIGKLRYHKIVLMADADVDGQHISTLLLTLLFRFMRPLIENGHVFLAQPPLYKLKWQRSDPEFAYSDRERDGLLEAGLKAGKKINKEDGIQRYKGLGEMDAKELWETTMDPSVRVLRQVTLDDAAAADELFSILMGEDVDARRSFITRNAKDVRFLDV
Sequence (P9WG47 whole entry): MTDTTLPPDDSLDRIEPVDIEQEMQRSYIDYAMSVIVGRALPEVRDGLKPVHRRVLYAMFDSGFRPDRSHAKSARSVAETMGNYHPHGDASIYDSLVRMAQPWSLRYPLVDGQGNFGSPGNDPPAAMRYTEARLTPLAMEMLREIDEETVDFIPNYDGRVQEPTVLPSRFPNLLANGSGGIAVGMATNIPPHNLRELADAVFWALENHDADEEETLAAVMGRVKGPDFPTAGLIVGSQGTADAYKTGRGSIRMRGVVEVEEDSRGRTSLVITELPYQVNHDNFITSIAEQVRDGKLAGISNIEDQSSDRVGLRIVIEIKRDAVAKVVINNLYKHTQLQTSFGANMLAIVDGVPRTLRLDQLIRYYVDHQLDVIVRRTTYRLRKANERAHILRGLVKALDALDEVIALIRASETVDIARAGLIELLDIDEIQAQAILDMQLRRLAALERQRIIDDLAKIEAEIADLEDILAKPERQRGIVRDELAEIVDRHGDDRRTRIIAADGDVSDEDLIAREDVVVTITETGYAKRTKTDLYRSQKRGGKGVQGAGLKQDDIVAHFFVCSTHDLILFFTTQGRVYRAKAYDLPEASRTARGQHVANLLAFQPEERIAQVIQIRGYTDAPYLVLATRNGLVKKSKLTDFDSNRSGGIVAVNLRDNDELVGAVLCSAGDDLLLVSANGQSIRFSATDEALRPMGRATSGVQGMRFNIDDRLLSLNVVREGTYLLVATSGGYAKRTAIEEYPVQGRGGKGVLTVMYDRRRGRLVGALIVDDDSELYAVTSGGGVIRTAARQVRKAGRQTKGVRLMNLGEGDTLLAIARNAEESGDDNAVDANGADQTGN
Please go through the items and note down their IC50.
Write it as a number; the unit µM goes unstated.

q: For S=C(Nc1ccccc1)Nc1ccc(Nc2c3ccccc3nc3ccccc23)cc1 , what is its reported IC50?
a: 8.2

q: Quick one: IC50 for S=C(Nc1ccccc1)Nc1ccc(Nc2c3ccccc3nc3ccc(Cl)cc23)cc1 ?
a: 29.3

q: Would you kindly share the measured IC50 for O=S(=O)(Nc1ccc(Nc2c3ccccc3nc3ccc(Cl)cc23)cc1)c1ccccc1 ?
a: 9.2

q: Could you share which IC50 value was measured for Cc1ccc(S(=O)(=O)Nc2ccc(Nc3c4ccccc4nc4ccc(C)cc34)cc2)cc1 ?
a: 9.8

q: // IC50 lookup, key: Cc1ccc2nc3ccccc3c(Nc3ccc(NS(=O)(=O)c4ccccc4)cc3)c2c1
a: 5.86

q: IC50 for O=C(Nc1ccc(Cl)cc1)Nc1ccc(Nc2c3ccccc3nc3ccc(Cl)cc23)cc1 ?
a: 11.8

q: Which IC50 value is on record for Cc1ccc2nc3ccccc3c(Nc3ccc(NC(=O)Nc4ccc([N+](=O)[O-])cc4)cc3)c2c1 ?
a: 7.4

* * *

target: DNA gyrase subunit A/DNA gyrase subunit B (Mycobacterium tuberculosis (strain ATCC 25618 / H37Rv), UniProt P9WG45+P9WG47); experiment: Inhibition of Mycobacterium tuberculosis DNA gyrase assessed as inhibition of DNA supercoiling after 30 mins by electrophoresis
Measurement Type: IC50 (µM)
Number in µM, nothing else.

q: I am curious: what IC50 value has been reported for O=S(=O)(Nc1ccc(Nc2c3ccccc3nc3ccccc23)cc1)c1ccccc1 ?
a: 15.1

q: Fill in: IC50 of O=[N+]([O-])c1ccc(NC(=S)Nc2ccc(Nc3c4ccccc4nc4ccc(Cl)cc34)cc2)cc1 is ___
a: 28.8

q: What value of measured IC50 is listed for Cc1ccc(NC(=S)Nc2ccc(Nc3c4ccccc4nc4ccccc34)cc2)cc1 ?
a: 31.1

q: Name the recorded IC50 for Cc1ccc2nc3ccccc3c(Nc3ccc(NC(=S)Nc4ccc([N+](=O)[O-])cc4)cc3)c2c1 .
a: 24.8

q: Record request: IC50 value, item O=C(Nc1ccc(Nc2c3ccccc3nc3ccccc23)cc1)Nc1ccc([N+](=O)[O-])cc1
a: 26.8

q: Need IC50, item O=S(=O)(Nc1ccc(Nc2c3ccccc3nc3ccc(Cl)cc23)cc1)c1ccc(Cl)cc1
a: 12.4

q: Endpoint output: IC50 of Cc1ccc2nc3ccccc3c(Nc3ccc(NC(=S)Nc4ccc(Cl)cc4)cc3)c2c1 . Value?
a: 11.2

q: Reported IC50, molecule Cc1ccc(NC(=O)Nc2ccc(Nc3c4ccccc4nc4ccc(C)cc34)cc2)cc1 : ____
a: 29.6

q: Param item = Cc1ccc2nc3ccccc3c(Nc3ccc(NC(=O)Nc4ccccc4)cc3)c2c1 ; retrieve measured IC50.
a: 22.1

* * *

test: Cytotoxicity against mouse RAW264.7 cells assessed as inhibition of cell growth at 50 uM after 72 hrs by MTT assay; assay type: cell-based
Measurement Type: inhibition at 72 h, 50 µM (%)
Kindly provide the numeric value in % only, without the unit symbol.

q: Which inhibition at 72 h, 50 µM value belongs to O=S(=O)(Nc1ccc(Nc2c3ccccc3nc3ccc(Cl)cc23)cc1)c1ccc(Cl)cc1 ?
a: 14.2

q: Bench note: what inhibition at 72 h, 50 µM did O=C(Nc1ccccc1)Nc1ccc(Nc2c3ccccc3nc3ccccc23)cc1 show?
a: 30.4

q: Entry O=[N+]([O-])c1ccc(S(=O)(=O)Nc2ccc(Nc3c4ccccc4nc4ccccc34)cc2)cc1 : reported inhibition at 72 h, 50 µM = ?
a: 34.1

q: Quick check: inhibition at 72 h, 50 µM of O=C(Nc1ccc(Nc2c3ccccc3nc3ccccc23)cc1)Nc1ccc([N+](=O)[O-])cc1 ?
a: 19.2

q: What does the record list as inhibition at 72 h, 50 µM for O=[N+]([O-])c1ccc(NC(=S)Nc2ccc(Nc3c4ccccc4nc4ccccc34)cc2)cc1 ?
a: 20.8

q: Look up inhibition at 72 h, 50 µM for this molecule: O=C(Nc1ccc(Cl)cc1)Nc1ccc(Nc2c3ccccc3nc3ccc(Cl)cc23)cc1
a: 17.1

q: Could you share which inhibition at 72 h, 50 µM value was measured for O=[N+]([O-])c1ccc(NC(=S)Nc2ccc(Nc3c4ccccc4nc4ccc(Cl)cc34)cc2)cc1 ?
a: 30.4

q: Requested field: inhibition at 72 h, 50 µM. Item: Cc1ccc(NC(=O)Nc2ccc(Nc3c4ccccc4nc4ccc(C)cc34)cc2)cc1
a: 43.1

q: Look at this molecule and give its reported inhibition at 72 h, 50 µM. Cc1ccc2nc3ccccc3c(Nc3ccc(NC(=O)Nc4ccc([N+](=O)[O-])cc4)cc3)c2c1
a: 33.9

* * *

assay: Inhibition of Mycobacterium tuberculosis DNA topoisomerase 1
Measurement Type: IC50 (µM)
The figure you give is taken to be in µM; do not add the unit.

q: Dear colleague, I am looking for the recorded IC50 of the following molecule: COc1cc(NS(C)(=O)=O)ccc1Nc1c2ccccc2nc2ccccc12 [AMSACRINE]
a: 10

* * *

Record form. Attribute: inhibition at 72 h, 50 µM. Fill in for each entry.
assay: Cytotoxicity against mouse RAW264.7 cells assessed as inhibition of cell growth at 50 uM after 72 hrs by MTT assay; assay type: cell-based
The response must be a number in % with no trailing unit.

q: Consider the molecule COc1c(N2C[C@@H]3CCCN[C@@H]3C2)c(F)cc2c(=O)c(C(=O)O)cn(C3CC3)c12 and give its measured inhibition at 72 h, 50 µM.
a: 1.26

q: Query (molecule): Cc1ccc2nc3ccccc3c(Nc3ccc(NS(=O)(=O)c4ccc([N+](=O)[O-])cc4)cc3)c2c1 ; field requested: inhibition at 72 h, 50 µM
a: 27

q: Given the entry Cc1ccc(S(=O)(=O)Nc2ccc(Nc3c4ccccc4nc4ccc(C)cc34)cc2)cc1 , report its measured inhibition at 72 h, 50 µM.
a: 27.8

q: Quick one: inhibition at 72 h, 50 µM of Cc1ccc(S(=O)(=O)Nc2ccc(Nc3c4ccccc4nc4ccccc34)cc2)cc1 ?
a: 28.4

* * *

target: DNA gyrase subunit A/DNA gyrase subunit B (Mycobacterium tuberculosis (strain ATCC 25618 / H37Rv), UniProt P9WG45+P9WG47); test: Inhibition of Mycobacterium tuberculosis DNA gyrase assessed as inhibition of DNA supercoiling after 30 mins by electrophoresis
Measurement Type: pIC50
Reminder that pIC50 is minus the log10 of a molar concentration.

q: Could you share which pIC50 value was measured for O=S(=O)(Nc1ccc(Nc2c3ccccc3nc3ccccc23)cc1)c1ccc(Cl)cc1 ?
a: 4.62

q: Look at this compound and give its reported pIC50. Cc1ccc2nc3ccccc3c(Nc3ccc(NC(=O)Nc4ccc(Cl)cc4)cc3)c2c1
a: 4.94

q: GET /values?readout=pIC50&item= O=[N+]([O-])c1ccc(S(=O)(=O)Nc2ccc(Nc3c4ccccc4nc4ccccc34)cc2)cc1
a: 4.65

q: What value of pIC50 has been recorded for this entry: O=[N+]([O-])c1ccc(S(=O)(=O)Nc2ccc(Nc3c4ccccc4nc4ccc(Cl)cc34)cc2)cc1
a: 5.09

q: Returns the measured pIC50 for the input compound. Input: O=[N+]([O-])c1ccc(NC(=S)Nc2ccc(Nc3c4ccccc4nc4ccccc34)cc2)cc1
a: 4.88

q: Any idea what pIC50 was measured for S=C(Nc1ccc(Cl)cc1)Nc1ccc(Nc2c3ccccc3nc3ccccc23)cc1 ?
a: 5.08

q: Request the reported pIC50 associated with O=C(Nc1ccc(Nc2c3ccccc3nc3ccc(Cl)cc23)cc1)Nc1ccc([N+](=O)[O-])cc1
a: 5.14

q: I would be grateful if you could share the reported pIC50 for S=C(Nc1ccc(Cl)cc1)Nc1ccc(Nc2c3ccccc3nc3ccc(Cl)cc23)cc1 .
a: 4.50

q: Fill in: pIC50 of Cc1ccc(NC(=S)Nc2ccc(Nc3c4ccccc4nc4ccc(Cl)cc34)cc2)cc1 is ___
a: 4.47

* * *

assay: Cytotoxicity against mouse RAW264.7 cells assessed as inhibition of cell growth at 50 uM after 72 hrs by MTT assay; assay type: cell-based
Exercise: for every item that follows, state its recorded inhibition at 72 h, 50 µM.
Entry rule: numbers only, all in %.

q: Consider the compound shown here: O=C(Nc1ccc(Cl)cc1)Nc1ccc(Nc2c3ccccc3nc3ccccc23)cc1 What is its recorded inhibition at 72 h, 50 µM?
a: 26.2

q: # query: inhibition at 72 h, 50 µM of entry O=C(Nc1ccccc1)Nc1ccc(Nc2c3ccccc3nc3ccc(Cl)cc23)cc1
a: 27.7

q: Which inhibition at 72 h, 50 µM is reported for this compound? S=C(Nc1ccc(Cl)cc1)Nc1ccc(Nc2c3ccccc3nc3ccc(Cl)cc23)cc1
a: 6.7

q: Query (compound): Cc1ccc2nc3ccccc3c(Nc3ccc(NC(=O)Nc4ccccc4)cc3)c2c1 ; field requested: inhibition at 72 h, 50 µM
a: 24.8

q: Param item = O=S(=O)(Nc1ccc(Nc2c3ccccc3nc3ccccc23)cc1)c1ccc(Cl)cc1 ; retrieve measured inhibition at 72 h, 50 µM.
a: 34.2

q: I am curious: what inhibition at 72 h, 50 µM value has been reported for Cc1ccc2nc3ccccc3c(Nc3ccc(NS(=O)(=O)c4ccc(Cl)cc4)cc3)c2c1 ?
a: 11.8

q: For the compound shown here, Cc1ccc2nc3ccccc3c(Nc3ccc(NC(=O)Nc4ccc(Cl)cc4)cc3)c2c1 , give the reported inhibition at 72 h, 50 µM.
a: 25.9

q: Give its inhibition at 72 h, 50 µM value. Item: Cc1ccc(NC(=O)Nc2ccc(Nc3c4ccccc4nc4ccccc34)cc2)cc1
a: 18.4

q: Give the measured inhibition at 72 h, 50 µM of Cc1ccc(NC(=S)Nc2ccc(Nc3c4ccccc4nc4ccccc34)cc2)cc1 .
a: 27.4

q: Return reported inhibition at 72 h, 50 µM; argument: O=S(=O)(Nc1ccc(Nc2c3ccccc3nc3ccccc23)cc1)c1ccccc1
a: 42.1

q: Entry under review: Cc1ccc2nc3ccccc3c(Nc3ccc(NC(=S)Nc4ccc([N+](=O)[O-])cc4)cc3)c2c1 . Reported inhibition at 72 h, 50 µM?
a: 28.8

q: Fill in: inhibition at 72 h, 50 µM of O=[N+]([O-])c1ccc(S(=O)(=O)Nc2ccc(Nc3c4ccccc4nc4ccc(Cl)cc34)cc2)cc1 is ___
a: 30.4

q: Name the reported inhibition at 72 h, 50 µM value associated with the compound S=C(Nc1ccc(Cl)cc1)Nc1ccc(Nc2c3ccccc3nc3ccccc23)cc1
a: 12.5

q: Look up inhibition at 72 h, 50 µM: Cc1ccc(NC(=S)Nc2ccc(Nc3c4ccccc4nc4ccc(C)cc34)cc2)cc1
a: 35

q: Looking for the measured inhibition at 72 h, 50 µM of S=C(Nc1ccccc1)Nc1ccc(Nc2c3ccccc3nc3ccccc23)cc1 , can you help?
a: 29.2

q: I have this compound here, Cc1ccc(NC(=S)Nc2ccc(Nc3c4ccccc4nc4ccc(Cl)cc34)cc2)cc1 , and I need its recorded inhibition at 72 h, 50 µM.
a: 25.5

q: GET /values?readout=inhibition at 72 h, 50 µM&item= O=C(Nc1ccc(Nc2c3ccccc3nc3ccc(Cl)cc23)cc1)Nc1ccc([N+](=O)[O-])cc1
a: 45.9

q: Which inhibition at 72 h, 50 µM value is on record for Cc1ccc2nc3ccccc3c(Nc3ccc(NC(=S)Nc4ccc(Cl)cc4)cc3)c2c1 ?
a: 26

q: Name the reported inhibition at 72 h, 50 µM value associated with the compound Cc1ccc2nc3ccccc3c(Nc3ccc(NC(=S)Nc4ccccc4)cc3)c2c1
a: 10.8
